System: U2OS
Experiment: Multiplex assay against U2OS
Format: toxicity, cell-based
Details: human, 24 h, 10 µM, compound concentration 10 uM, replicate 1
QUANTITY: Population Tubulin-Different-Phenotype (%)
Supply the numeric figure in %, leaving out any unit text.

**Query** Answer with the recorded Population Tubulin-Different-Phenotype (%) for the compound listed here: Cc1sc2c(c1C)C(c1ccc(Cl)cc1)=N[C@@H](CC(=O)NCCCCCCCCNC(=O)COc1cccc3c1C(=O)N(C1CCC(=O)NC1=O)C3=O)c1nnc(C)n1-2 (some centres undefined)
**Result** 2

**Query** Please look at this compound and report its Population Tubulin-Different-Phenotype (%): "COc1ccccc1N1CCN(C[C@@H](C(=O)NC(C)(C)C)c2ccccc2)CC1.Cl.Cl"
**Result** 25

**Query** Identify Population Tubulin-Different-Phenotype (%) associated with the compound "N#Cc1cc(F)cc(-c2nc(-c3ccc(F)cn3)no2)c1"
**Result** 2

**Query** // fetch Population Tubulin-Different-Phenotype (%) given entry "CCCOc1ccc2[nH]cc(C3=CCNCC3)c2n1.Cl"
**Result** 3

**Query** Output measured Population Tubulin-Different-Phenotype (%) for this item: CN[C@@H](C)C(=O)N[C@H](C(=O)N1CCC[C@H]1C(=O)Nc1snnc1-c1ccccc1)C1CCCCC1 [GDC-0152]
**Result** 59

**Query** Dear colleague, please send me the reported Population Tubulin-Different-Phenotype (%) for "Cc1onc(-c2ccccc2Cl)c1C(=O)N(C)c1ccc(Cl)cc1" when you can.
**Result** 4

**Query** # return recorded Population Tubulin-Different-Phenotype (%) for input "CN1CCN(c2cc(-c3ccccc3)nc(N)n2)CC1"
**Result** 7

**Query** State, in one line, measured Population Tubulin-Different-Phenotype (%) of "Cc1cccc(NC(=O)CN2CCC(c3ccccn3)CC2)c1.Cl.Cl"
**Result** 2

**Query** Report Population Tubulin-Different-Phenotype (%), nothing else, for this compound: "Cc1noc(-c2ccc(-c3ccc(CC(=O)O)cc3)cc2)c1NC(=O)O[C@H](C)c1ccccc1Cl"
**Result** 5

**Query** Consider the compound CC(C)COc1ccc(CNC(=O)N(Cc2ccc(F)cc2)C2CCN(C)CC2)cc1 [PIMAVANSERIN] . State its measured Population Tubulin-Different-Phenotype (%).
**Result** 49

**Query** Identify Population Tubulin-Different-Phenotype (%) associated with the compound "CCCCC(=O)N(Cc1ccc(-c2ccccc2-c2nnn[nH]2)cc1)[C@H](C(=O)O)C(C)C"
**Result** 2

**Query** Supply measured Population Tubulin-Different-Phenotype (%) of Cc1c(CC(=O)O)c2cccnc2n1Cc1ccc(S(C)(=O)=O)cc1C(F)(F)F [FEVIPIPRANT] in your reply.
**Result** 3

**Query** Fill in Population Tubulin-Different-Phenotype (%) for record "CN(C)C(=O)Cn1cc(-c2ccc(-c3cncc4ccccc34)cc2)cn1"
**Result** 10

**Query** Give recorded Population Tubulin-Different-Phenotype (%). Cl.N=C(N)NC(=O)Cc1c(Cl)cccc1Cl [GUANFACINE HYDROCHLORIDE]
**Result** 4

**Query** Give recorded Population Tubulin-Different-Phenotype (%). CCCCC1=NC2(CCCC2)C(=O)N1Cc1ccc(-c2ccccc2-c2nnn[nH]2)cc1 [IRBESARTAN]
**Result** 4

**Query** Quickly give me recorded Population Tubulin-Different-Phenotype (%) for O=C(NCCN1CCC(n2c(=O)[nH]c3cc(Cl)ccc32)CC1)c1ccc(F)cc1 [HALOPEMIDE]
**Result** 7

**Query** In one line, give reported Population Tubulin-Different-Phenotype (%) of the entry "O=C(CCCc1ccccc1)Nc1nc2ccccc2c(=O)s1" .
**Result** 4

**Query** Input Cl.NCCc1ccc(O)c(O)c1 [DOPAMINE HYDROCHLORIDE] , output reported Population Tubulin-Different-Phenotype (%).
**Result** 1

**Query** Indicate its recorded Population Tubulin-Different-Phenotype (%); the compound in question is "COc1cccc2c1c(NS(=O)(=O)c1ccc(Cl)s1)nn2Cc1cccc(CNC(=O)C(C)(C)O)c1"
**Result** 2
